# experimental_details: A CellTox Green Cytotoxicity Assay to monitor cytotoxicity in HepG2 cells - 24 hour (AID 1224878); further: nearly all actives have a fitted effect of over 45% in size; further: potency means the concentration at half of the fitted maximal effect
# test_parameters: CellTox Green fluorescence; series mostly up to 76.8 µM
Results filed as inconclusive are left out. Active and inactive are the calls of the source. The call rests on the fitted dose curve; in most records, active means well fitted activation curve with a large enough effect in the repeat runs; inconclusive means weak or mixed curves; inactive means flat fitted curve, though single readings scatter.
assay_readout: Potency

compound | reading
COc1cccc(N)c1 | inactive
CCCCCCCCCCn1cc[n+](CCCCCCCCCC)c1C | 17.4 µM (active)
C[C@]12CCC(=O)C=C1CC[C@@H]1[C@@H]2[C@@H](O)C[C@@]2(C)[C@H]1CC[C@]2(O)C(=O)COC(=O)CCC(=O)O | inactive
CC(C)C(C)(C)C(C)(C)C(C)(C)S | inactive
OCCCCCCCCCCCCBr | inactive

GET /value?item= CCCCCCCCCCCCCCCC[N+](C)(C)CCN(Cc1ccc(OC)cc1)c1ncccn1 &field=Potency returns 6.74 µM (active)

Note to self: Potency recorded for CCOc1nc2cccc(C(=O)OC(C)OC(=O)OC3CCCCC3)c2n1Cc1ccc(-c2ccccc2-c2nn[nH]n2)cc1 (stereo not drawn) was 43.6 µM (active)

Values from PubChem BioAssay (Tox21)
